Would you kindly list CLint scaled at 1 µM for each of these compounds?
# experimentDescription: Metabolic stability in human liver microsomes assessed as intrinsic clearance at 1 uM incubated for 60 mins by LC-MS/MS analysis
# Format: ADME, Microsome
# assaySetup: read-out: CLH
Answers are plain numbers, in mL/min/kg.

Guide cases for CLint scaled at 1 µM, answers given:
testSmiles: COc1ccc(N(C)C(=O)[C@H](Cc2ccccc2)NC(=O)CN2CCN(S(=O)(=O)c3ccc(N)cc3)CC2=O)cc1
CLint scaled at 1 µM, mL/min/kg: 344
//
testSmiles: Cc1[nH]c2ccccc2c1CC(=O)N[C@@H](Cc1ccccc1)C(=O)N(C)c1ccccc1
CLint scaled at 1 µM, mL/min/kg: 2110
//
testSmiles: CN(C(=O)[C@H](Cc1cc(F)cc(F)c1)NC(=O)Cc1c[nH]c2ccc(N)cc12)c1ccc2scnc2c1
CLint scaled at 1 µM, mL/min/kg: 20.2

Next item in the queue.
Ask: Reported CLint scaled at 1 µM, compound CN(C(=O)[C@H](Cc1cc(F)cc(F)c1)NC(=O)Cc1c[nH]c2ccc(O)cc12)c1ccc2scnc2c1 : ____
Result: 15.2

----------
# experimentDescription: Cmax in male Sprague-Dawley rat at 10 mg/kg, sc measured upto 24 hrs by LC-MS/MS analysis
# Assay type: ADME, organism-based
# assaySetup: in vivo
measuredParameter: Cmax (ng/mL)
Give bare numbers, in ng/mL.

Ask: Name the reported Cmax value associated with the compound CN(C(=O)[C@H](Cc1cc(F)cc(F)c1)NC(=O)Cc1c[nH]c2ccc(O)cc12)c1ccc2scnc2c1
Result: 4.99

----------
# experimentDescription: MRT(0 to infinity) in male Sprague-Dawley rat at 2 mg/kg, iv measured upto 24 hrs by LC-MS/MS analysis
# Format: ADME, organism-based
# assaySetup: in vivo
measuredParameter: MRT inf

Ask: Name the recorded MRT inf for CN(C(=O)[C@H](Cc1cc(F)cc(F)c1)NC(=O)Cc1c[nH]c2ccc(O)cc12)c1ccc2scnc2c1 .
Result: 12.1 min

----------
# target: Structural capsid protein (Human immunodeficiency virus 1, UniProt Q76129)
# Sequence (Q76129 whole entry): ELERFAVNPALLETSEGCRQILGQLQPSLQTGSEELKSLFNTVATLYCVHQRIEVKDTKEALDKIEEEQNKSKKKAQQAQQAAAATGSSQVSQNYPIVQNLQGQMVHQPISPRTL
# experimentDescription: Binding affinity to monomeric HIV-1 NL4.3 capsid protein assessed as dissociation constant by SPR assay
measuredParameter: Kd
Write the quantity with the unit trailing the number.

Look over these answered cases.
testSmiles: CN(C(=O)[C@H](Cc1cc(F)cc(F)c1)NC(=O)Cc1c[nH]c2ccc(O)cc12)c1ccc2scnc2c1
Kd: 81.1 nM
//
testSmiles: CN(C(=O)[C@H](Cc1cc(F)cc(F)c1)NC(=O)Cc1c[nH]c2cc(F)c(F)cc12)c1ccc2scnc2c1
Kd: 267 nM
//
testSmiles: CN(C(=O)[C@H](Cc1cc(F)cc(F)c1)NC(=O)Cc1c[nH]c2ccc(N)cc12)c1ccc2scnc2c1
Kd: 196 nM

Okay, now this compound:
Ask: Entry under review: CN(C(=O)[C@H](Cc1cc(F)cc(F)c1)NC(=O)Cc1c[nH]c2ccc([N+](=O)[O-])cc12)c1ccc2scnc2c1 . Reported Kd?
Result: 153 nM

----------
# experimentDescription: Selectivity index, ratio of CC50 for human MT4 cells to EC50 for HIV-2 ROD infected in human MT-4 cells
# Assay type: toxicity, cell-based
# assaySetup: read-out: Selectivity Index
measuredParameter: selectivity ratio
Answers are plain numbers.

// worked examples, selectivity ratio included
testSmiles: COc1ccc2[nH]cc(CC(=O)N[C@@H](Cc3cc(F)cc(F)c3)C(=O)N(C)c3ccc4scnc4c3)c2c1
selectivity ratio: 460

testSmiles: CN(C(=O)[C@H](Cc1cc(F)cc(F)c1)NC(=O)Cc1c[nH]c2ccc(F)cc12)c1ccc2scnc2c1
selectivity ratio: 177

testSmiles: CN(C(=O)[C@H](Cc1cc(F)cc(F)c1)NC(=O)Cc1c[nH]c2cc(F)ccc12)c1ccc2scnc2c1
selectivity ratio: 153

Now for another entry.
Ask: Endpoint output: selectivity ratio of CN(C(=O)[C@H](Cc1cc(F)cc(F)c1)NC(=O)Cc1c[nH]c2cc(Cl)ccc12)c1ccc2scnc2c1 . Value?
Result: 197

----------
# experimentDescription: Selectivity index, ratio of CC50 for human MT4 cells to EC50 for wild type HIV-1 IIIB infected in human MT4 cells
# Format: toxicity, cell-based
# assaySetup: read-out: Selectivity Index
Lab note: cut-off is 700. Strictly less in selectivity ratio is criterion met. Exactly 700 or more is criterion not met.

Example cases with answers are listed next.
testSmiles: COc1ccc2[nH]cc(CC(=O)N[C@@H](Cc3cc(F)cc(F)c3)C(=O)N(C)c3ccc4scnc4c3)c2c1
classification: criterion not met
//
testSmiles: CN(C(=O)[C@H](Cc1cc(F)cc(F)c1)NC(=O)Cc1c[nH]c2cccc(Cl)c12)c1ccc2scnc2c1
classification: criterion met
//
testSmiles: CN(C(=O)[C@H](Cc1cc(F)cc(F)c1)NC(=O)Cc1c[nH]c2ccccc12)c1ccc2scnc2c1
classification: criterion not met

Ask: Criterion: selectivity ratio strictly below 700. Is it met by Cc1[nH]c2ccccc2c1CC(=O)N[C@@H](Cc1cc(F)cc(F)c1)C(=O)N(C)c1ccc2scnc2c1 ?
Result: criterion met

Ask: Answer whether the molecule CN(C(=O)[C@H](Cc1cc(F)cc(F)c1)NC(=O)C(=O)c1c[nH]c2ccccc12)c1ccc2scnc2c1 has selectivity ratio strictly less than 700
Result: criterion met

Ask: selectivity ratio strictly < 700 for this molecule? COC(=O)c1c(C)ccn1CC(=O)N[C@@H](Cc1cc(F)cc(F)c1)C(=O)N(C)c1ccc2scnc2c1
Result: criterion met

Ask: Consider COc1ccc2c(CC(=O)N[C@@H](Cc3cc(F)cc(F)c3)C(=O)N(C)c3ccc4scnc4c3)c[nH]c2c1 . Does its selectivity ratio lie strictly below 700?
Result: criterion met

Ask: # strict comparison: is reported selectivity ratio < 700? input = Cc1[nH]c2ccc(F)cc2c1CC(=O)N[C@@H](Cc1cc(F)cc(F)c1)C(=O)N(C)c1ccc2scnc2c1
Result: criterion met

Ask: Below 700 on selectivity ratio? Entry Cc1[nH]c2ccc(Cl)cc2c1CC(=O)N[C@@H](Cc1cc(F)cc(F)c1)C(=O)N(C)c1ccc2scnc2c1
Result: criterion met

Ask: A record lists CN(C(=O)[C@H](Cc1cc(F)cc(F)c1)NC(=O)Cc1c[nH]c2cc(Br)ccc12)c1ccc2scnc2c1 . Is its selectivity ratio below 700?
Result: criterion not met

Ask: Lab note: confirm whether the reported selectivity ratio for this molecule is below 700, equality not counting. molecule: CN(C(=O)[C@H](Cc1cc(F)cc(F)c1)NC(=O)Cc1c[nH]c2ccc(O)cc12)c1ccc2scnc2c1
Result: criterion not met

Ask: Dear reviewer, please state whether CN(C(=O)[C@H](Cc1cc(F)cc(F)c1)NC(=O)Cc1c[nH]c2ccc(Cl)cc12)c1ccc2scnc2c1 has selectivity ratio strictly beneath 700.
Result: criterion not met

----------
# experimentDescription: Tmax in male Sprague-Dawley rat at 10 mg/kg, sc measured upto 24 hrs by LC-MS/MS analysis
# Type: ADME, organism-based
# assaySetup: in vivo
measuredParameter: Tmax

Ask: What does the record list as Tmax for CN(C(=O)[C@H](Cc1cc(F)cc(F)c1)NC(=O)Cc1c[nH]c2ccc(O)cc12)c1ccc2scnc2c1 ?
Result: 1.33 h

----------
# experimentDescription: Selectivity index, ratio of CC50 for human MT4 cells to EC50 for HIV-2 ROD infected in human MT-4 cells
# Assay type: toxicity, cell-based
# assaySetup: read-out: Selectivity Index
measuredParameter: selectivity ratio
Numbers only.

testSmiles: CN(C(=O)[C@H](Cc1cc(F)cc(F)c1)NC(=O)Cc1c[nH]c2cc(Br)ccc12)c1ccc2scnc2c1
assayResult: 339

testSmiles: CN(C(=O)[C@H](Cc1cc(F)cc(F)c1)NC(=O)Cc1c[nH]c2ccc(Cl)cc12)c1ccc2scnc2c1
assayResult: 150

testSmiles: CN(C(=O)[C@H](Cc1cc(F)cc(F)c1)NC(=O)Cc1c[nH]c2cccc(F)c12)c1ccc2scnc2c1
assayResult: 47.3

testSmiles: CN(C(=O)[C@H](Cc1cc(F)cc(F)c1)NC(=O)Cc1c[nH]c2ccc(Br)cc12)c1ccc2scnc2c1
assayResult: 137

testSmiles: CN(C(=O)[C@H](Cc1cc(F)cc(F)c1)NC(=O)Cc1c[nH]c2ccccc12)c1ccc2scnc2c1
assayResult: 153

testSmiles: CN(C(=O)[C@H](Cc1cc(F)cc(F)c1)NC(=O)Cc1c[nH]c2cccc(Cl)c12)c1ccc2scnc2c1
assayResult: 12.7

Please go through the list and note selectivity ratio for each compound.
1. CN(C(=O)[C@H](Cc1cc(F)cc(F)c1)NC(=O)Cc1c[nH]c2ccc([N+](=O)[O-])cc12)c1ccc2scnc2c1
2. COC(=O)c1c(C)ccn1CC(=O)N[C@@H](Cc1cc(F)cc(F)c1)C(=O)N(C)c1ccc2scnc2c1
3. CN(C(=O)[C@H](Cc1cc(F)cc(F)c1)NC(=O)Cc1c[nH]c2ccc(N)cc12)c1ccc2scnc2c1
4. COc1ccc2c(CC(=O)N[C@@H](Cc3cc(F)cc(F)c3)C(=O)N(C)c3ccc4scnc4c3)c[nH]c2c1

Result:
1. 220
2. 66.3
3. 831
4. 170
